experimentalEndpoint: melting point

Recorded melting point, per entry:
COc1ccc(NC(=O)COc2nc(-c3cccc(O)c3)cc(-c3cc4ccccc4nc3N3CCOCC3)c2C#N)cc1 [11c] :: 268 to 270 °C
COc1ccc2nc(N3CCOCC3)c(-c3cc(-c4cccc(O)c4)nc(S)c3C#N)cc2c1 :: > 300 °C
COc1ccc2nc(N3CCOCC3)c(-c3cc(-c4cccc(OC(C)=O)c4)[nH]c(=O)c3C#N)cc2c1 :: > 300 °C

melting point lookup needed for N#Cc1c(-c2cc3ccccc3nc2N2CCOCC2)cc(-c2cccc(O)c2)nc1OCC(=O)Nc1ccccc1 [11a] , thanks.
243 to 245 °C

====

test system: prostate cancer cell line (PC-3); test: MTT anticancer activity, PC-3; assay type: cell-based, human; details: Homo sapiens, 72 h, PC-3, 72 h, mean ± SEM
pIC50: −log10 of the molar value.
experimentalEndpoint: pIC50

N#Cc1c(-c2cc3ccccc3nc2N2CCOCC2)cc(-c2cccc(O)c2)nc1OCC(=O)O [9a] :: 7.07
CC(=O)Oc1cccc(-c2cc(-c3cc4cc(Cl)ccc4nc3N3CCOCC3)c(C#N)c(=O)[nH]2)c1 [7b] :: 6.87
COc1ccc2nc(N3CCOCC3)c(-c3cc(-c4cccc(O)c4)nc(OCC(=O)O)c3C#N)cc2c1 [9c] :: 7.34
N#Cc1c(-c2cc3cc(Cl)ccc3[nH]c2=O)cc(-c2cccc(O)c2)[nH]c1=O [13b] :: 7.41
COc1ccc2[nH]c(=O)c(-c3cc(-c4cccc(O)c4)nc(N)c3C#N)cc2c1 [15c] :: 6.84

P. COc1ccc2nc(N3CCOCC3)c(-c3cc(-c4cccc(O)c4)nc(S)c3C#N)cc2c1 [6c]
Q. COc1ccc2nc(N3CCCCC3)c(-c3cc(-c4cccc(O)c4)nc(S)c3C#N)cc2c1 [6e]
Kindly compare P with Q and tell me which has the lower pIC50 figure. Please identify the chosen entry by its label.
P

====

tested on: Colon cancer cells (Caco-2); assay: MTT anticancer activity, Caco-2; type: cell-based, human; conditions: selectivity index, Wi-38 versus Caco-2
experimentalEndpoint: Caco-2 SI
// response body must contain only the number

These recorded examples may help you get a feel for the data.
N#Cc1c(-c2cc3ccccc3nc2N2CCOCC2)cc(-c2cccc(O)c2)[nH]c1=O :: 1.554
COc1ccc2nc(N3CCOCC3)c(-c3cc(-c4cccc(O)c4)nc(OCC(=O)Nc4ccccc4)c3C#N)cc2c1 [11g] :: 2.971

Entry COc1ccc(NC(=O)COc2nc(-c3cccc(O)c3)cc(-c3cc4cc(OC)ccc4nc3N3CCOCC3)c2C#N)cc1 [11i] has what Caco-2 SI?
7.435

Request: N#Cc1c(-c2cc3ccccc3nc2N2CCOCC2)cc(-c2cccc(O)c2)nc1OCC(=O)Nc1ccc(Cl)cc1 [11b]
5.349

====

system: normal human lung fibroblast Wi-38 cell line; experiment: MTT cytotoxicity on normal cells; type: cell-based; conditions: Homo sapiens; Wi-38, 72 h, MTT, 50% cell viability; mean ± SEM
experimentalEndpoint: EC50 (nM)
Value expressed in nM; do not type the unit.

# annotated cases, reported EC50 shown
COc1ccc2nc(N3CCOCC3)c(-c3cc(-c4cccc(O)c4)nc(OCC(=O)O)c3C#N)cc2c1 [9c] :: 276
N#Cc1c(-c2cc3ccccc3[nH]c2=O)cc(-c2cccc(O)c2)[nH]c1=O [13a] :: 25.5
COc1ccc2nc(N3CCOCC3)c(-c3cc(-c4cccc(O)c4)nc(OCC(=O)Nc4ccc(Cl)cc4)c3C#N)cc2c1 [11h] :: 166
N#Cc1c(-c2cc3cc(Cl)ccc3[nH]c2=O)cc(-c2cccc(O)c2)[nH]c1=O [13b] :: 48.6
COc1ccc2nc(N3CCCCC3)c(-c3cc(-c4cccc(O)c4)nc(S)c3C#N)cc2c1 [6e] :: 155
CC(=O)Oc1cccc(-c2cc(-c3cc4ccccc4nc3N3CCOCC3)c(C#N)c(=O)[nH]2)c1 [7a] :: 174
N#Cc1c(-c2cc3ccccc3nc2N2CCOCC2)cc(-c2cccc(O)c2)nc1OCC(=O)Nc1ccc(Cl)cc1 [11b] :: 337

Please find the next compound below.
Hello, I am looking for reported EC50 with normal human lung fibroblast Wi-38 cell line for COc1ccc2nc(N3CCOCC3)c(-c3cc(-c4cccc(O)c4)nc(OCC(=O)Nc4ccccc4)c3C#N)cc2c1 [11g] . Could you help?
186
